Biological target: T1, recombinant mouse MAdCAM (mouse, UniProt Q61826 22-365)
T1 sequence (looked up): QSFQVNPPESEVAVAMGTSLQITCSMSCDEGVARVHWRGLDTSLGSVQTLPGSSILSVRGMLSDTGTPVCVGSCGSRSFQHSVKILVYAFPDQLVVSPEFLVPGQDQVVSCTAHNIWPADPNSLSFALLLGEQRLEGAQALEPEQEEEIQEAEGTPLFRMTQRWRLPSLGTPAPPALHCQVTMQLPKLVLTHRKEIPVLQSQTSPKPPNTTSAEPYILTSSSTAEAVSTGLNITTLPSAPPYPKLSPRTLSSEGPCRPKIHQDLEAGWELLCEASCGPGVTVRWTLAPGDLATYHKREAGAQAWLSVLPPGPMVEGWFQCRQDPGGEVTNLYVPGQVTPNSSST
Experiment: ELISA
measure: binding result

binder	reported
anti-MAdCAM monoclonal antibody 6.22.2 (antibody, human IgG4, kappa, V domains shown, human IgG4 kappa from hybridoma 6.22.2) VH: QVQLVESGGGVVQPGRSLRLSCAASGHTFSSDGMHWVRQAPGKGLEWVAIIWYDGSNKYYADSVKGRFTISRDNSKNTLYLQMNSLRAEDTAVYYCARDPGYYYGMDVWGQGTTVTVSS VL: EIVLTQSPDFQSVTPKEKVTITCRASQRIGSSLHWYQQKPDQSPKLLIKYASQSFSGVPSRFSGSGSGTNFTLTINGLEAEDAATYYCHQSGRLPLTFGGGTKVEIKR	no binding
anti-MAdCAM monoclonal antibody 6.14.2 (antibody, human IgG4, kappa, V domains shown, human IgG4 kappa from hybridoma 6.14.2) VH: EVQLLESGGGLVQPGGSLRLSCAASGLTFNNSAMTWVRQAPGKGLEWVSTTSGSGGTTYYADSVKGRFTISRDSPKNTLYLQMNSLRAEDTAVYYCAARGYSYGTTPYEYWGQGTLVTVSS VL: DIQMTQSPSSLSASVGDRVTITCRASRSISSYLNWYQQKPGKAPKVLIFFVSSLQSGVPSRFSGSGSGTDFTLTISSLQPEDFATYYCQQNYIPPITFGQGTRLEIRR	no binding
anti-MAdCAM monoclonal antibody 6.34.2 (antibody, human IgG4, kappa, V domains shown, human IgG4 kappa from hybridoma 6.34.2) VH: QVQLVESGGGVVQPGRSLRLSCAASGFTFSSYGMHWVRQAPGKGLEWVAVISNDGNNKYYADSVKGRFTISRDNSKNTLYLQMNSLSAEDTAVYYCARDSTAITYYYYGMDVWGQGTTVTVSS VL: DIQMTQSPSSLSASVGDRVTITCRASQNISSYLNWFQQKPGKAPKLLIYAASGLKRGVPSRFSGSGSGTDFTLTIRTLQPDDFATYSCHQSYSLPFTFGPGTKVDIKR	no binding
